Let's look at some variants and their measured polymerase ribozyme fitness (log ratio).
B1: TPR 5TU (parent)
chain: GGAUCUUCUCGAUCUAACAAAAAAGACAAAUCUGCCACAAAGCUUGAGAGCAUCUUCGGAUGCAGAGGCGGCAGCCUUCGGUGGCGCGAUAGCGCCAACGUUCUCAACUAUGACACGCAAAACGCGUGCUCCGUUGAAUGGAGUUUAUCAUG

Variants of: B1
Measurement description: polymerase ribozyme fitness, log enrichment relative to wild type (log ratio); higher = more active; in vitro selection for triplet polymerase activity
Fewer inactive variants are shown than the library holds.

Reference set, count: 2
Mutation key	polymerase ribozyme fitness (log ratio)
A39U C43U C85U G117U G126C C132G	≤ -4.2
C14U C72A C85G G133U	≤ -4.2

Fill in the blank: the reported polymerase ribozyme fitness (log ratio) of C32U A40C C85G C103A is ____. ≤ -4.2

Fill in the blank: the reported polymerase ribozyme fitness (log ratio) of U6A C8A A12G C43U A64C G86C C87A is ____. ≤ -4.2

Fill in the blank: the reported polymerase ribozyme fitness (log ratio) of A20U G83C G92A U127A G128U is ____. ≤ -4.2

Fill in the blank: the reported polymerase ribozyme fitness (log ratio) of G50U G67U C85G C103U G140A A147G is ____. ≤ -4.2

Fill in the blank: the reported polymerase ribozyme fitness (log ratio) of U4A C96A A98C A115U A142U G152C is ____. ≤ -4.2

Fill in the blank: the reported polymerase ribozyme fitness (log ratio) of G59A A115G G140A is ____. ≤ -4.2

Fill in the blank: the reported polymerase ribozyme fitness (log ratio) of A66G C85U U111G U146A is ____. ≤ -4.2
